// data source = the supplement of paper PMC10126150

System: ATP;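 further: ATP exposure 15 min at 22 °C before imaging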
Assay: switch fluorescence ratio, 500 uM ATP over buffer (Cy3 cluster intensity, sum of 5 cycles each) (fold (ratio)); higher = stronger signal-on switching upon ATP binding; sequences stand for … in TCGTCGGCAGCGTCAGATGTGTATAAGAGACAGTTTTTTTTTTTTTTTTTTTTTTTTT…TC
Conditions: aptamer strand: ATP DNA aptamer (quencher-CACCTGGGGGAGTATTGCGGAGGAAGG + anchor), 100 nM annealed; ATP concentration: 500 uM
For each entry below, report its switch fluorescence ratio value.
Answers are plain numbers.

| SEQUENCE_RECORD | switch fluorescence ratio |
| --- | --- |
| GGCTTAGGGG | 0.979 |
| TGTGGGGGGG | 1.01 |
| AGTTGAGGGC | 0.98 |
| ATCATTTTTA | 1.01 |
| AGGAGTATTA | 0.983 |
| TTTATATGCG | 1 |
| TTTTAGGCTT | 1.01 |
| GAGATTGGGT | 1 |

Provide switch fluorescence ratio values for the following items, in order.
1. CTGAGAAGAG
2. AGGTGTTGCG
3. AAAAACGGCT

0.993
1.02
0.99

* * *

For each entry below, report its switch fluorescence ratio value.
Tested on: ATP;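 further: ATP exposure 15 min at 22 °C before imaging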
Assay: switch fluorescence ratio, 500 uM ATP over buffer (Cy3 cluster intensity, sum of 5 cycles each) (fold (ratio)); higher = stronger signal-on switching upon ATP binding; sequences stand for … in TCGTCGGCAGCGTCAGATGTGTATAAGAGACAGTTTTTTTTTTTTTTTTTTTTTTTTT…TC
Details: aptamer strand: ATP DNA aptamer (quencher-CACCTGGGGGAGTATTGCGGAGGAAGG + anchor), 100 nM annealed; ATP concentration: 500 uM
One number for each entry.

Example results:
| SEQUENCE_RECORD | SYSTEM_UNDER_TEST | QUANTITY_NAME | RECORDED_RESULT |
| --- | --- | --- | --- |
| ATCATGGGGT | ATP | switch fluorescence ratio | 0.984 |
| TTTGCGGGTT | ATP | switch fluorescence ratio | 1 |

Provide switch fluorescence ratio values for the following items, in order.
1. GGTGCTGTGT
2. TGAGGGTCCT
3. CGGATTAGGT
4. TATTCATTGT
5. CTTAGTGTTC

1.01
1.02
0.993
1
0.992

* * *

For each entry below, report its switch fluorescence ratio value.
System: ATP;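 further: ATP exposure 15 min at 22 °C before imaging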
Experiment: switch fluorescence ratio, 500 uM ATP over buffer (Cy3 cluster intensity, sum of 5 cycles each) (fold (ratio)); higher = stronger signal-on switching upon ATP binding; sequences stand for … in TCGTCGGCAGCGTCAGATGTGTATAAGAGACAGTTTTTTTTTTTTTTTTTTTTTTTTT…TC
Conditions: aptamer strand: ATP DNA aptamer (quencher-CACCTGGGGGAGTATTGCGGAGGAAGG + anchor), 100 nM annealed; ATP concentration: 500 uM
Numbers only.

Example results:
| SEQUENCE_RECORD | SYSTEM_UNDER_TEST | switch fluorescence ratio |
| --- | --- | --- |
| TTATTTGTCA | ATP | 0.989 |
| GGCTTGAAGG | ATP | 1.03 |
| CATGAGAAGA | ATP | 0.999 |
| TCAACGAGTA | ATP | 1.03 |
| GACGGATACA | ATP | 1.38 |

Provide switch fluorescence ratio values for the following items, in order.
1. TTTTGTTTAC
2. TTCGTGACCC
3. TAGTTTTTTC
4. ACCGGTTAGC

1.01
1.02
0.99
1.02

Provide switch fluorescence ratio values for the following items, in order.
1. TTTGTGGGG
2. CTGTGGTATT

1. 0.978
2. 0.985

Provide switch fluorescence ratio values for the following items, in order.
1. GGACTTCCTG
2. GGCATAGGTA
3. TTGTTTTGGG
4. AAAGGTTTCG
5. TTATTGGGTT

1
1.01
1
0.989
0.995

* * *

Tested on: ATP;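 further: ATP exposure 15 min at 22 °C before imaging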
Experiment: switch fluorescence ratio, 500 uM ATP over buffer (Cy3 cluster intensity, sum of 5 cycles each) (fold (ratio)); higher = stronger signal-on switching upon ATP binding; sequences stand for … in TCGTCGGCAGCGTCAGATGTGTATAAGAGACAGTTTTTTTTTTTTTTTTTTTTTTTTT…TC
Conditions: aptamer strand: ATP DNA aptamer (quencher-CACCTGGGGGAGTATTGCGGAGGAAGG + anchor), 100 nM annealed; ATP concentration: 500 uM
QUANTITY_NAME: switch fluorescence ratio
Numbers only.

| SEQUENCE_RECORD | SYSTEM_UNDER_TEST | switch fluorescence ratio |
| --- | --- | --- |
| TATTTCCCGT | ATP | 1.06 |
| GATTATCGTT | ATP | 1.03 |
| GTCATAACAT | ATP | 1.02 |

Provide switch fluorescence ratio values for the following items, in order.
1. AGGGCTTAGT
2. TTTGGCGGGG
3. CGGTGGGTC

[0.995, 0.999, 1.01]

Provide switch fluorescence ratio values for the following items, in order.
1. GACGTGTTG
2. TTGGATGGGT
3. ACGTGGTAGC
4. CTGAGTGTGG

1: 1.01; 2: 0.959; 3: 1; 4: 0.989

Provide switch fluorescence ratio values for the following items, in order.
1. GATCTTAGGT
2. GCGGAGGGGT
3. TTTTCTGTGT

1: 0.996; 2: 1.02; 3: 0.94

Provide switch fluorescence ratio values for the following items, in order.
1. GGAAAGTAGG
2. ATAGCTTGGG
3. TGATGCAATT

[1.01, 0.985, 1.36]

Provide switch fluorescence ratio values for the following items, in order.
1. TTATATAGGT
2. TTGAGTGAAT
3. GCAGGGGGAG
4. CTCGCATGCA

1: 0.974; 2: 1; 3: 1.02; 4: 1.2

Provide switch fluorescence ratio values for the following items, in order.
1. CGACCTTGGC
2. CTTTACTAGG
3. GGAAGTATTA

[1.02, 1.02, 0.966]

Provide switch fluorescence ratio values for the following items, in order.
1. TCAGTATGTT
2. GCGTCCACGG
3. TGCCAGGAGT
4. GGGGAGGGAC

1. 0.965
2. 1.02
3. 1.05
4. 1.02

Provide switch fluorescence ratio values for the following items, in order.
1. ATACGATATT
2. GTCGTATTGG
3. ACTGGGGGGA
4. GGGGGGGTG
5. TTTCCTCTGG

1. 1.14
2. 1.03
3. 1.02
4. 1.04
5. 1.95

* * *

Tested on: ATP;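 further: ATP exposure 15 min at 22 °C before imaging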
Experiment: switch fluorescence ratio, 500 uM ATP over buffer (Cy3 cluster intensity, sum of 5 cycles each) (fold (ratio)); higher = stronger signal-on switching upon ATP binding; sequences stand for … in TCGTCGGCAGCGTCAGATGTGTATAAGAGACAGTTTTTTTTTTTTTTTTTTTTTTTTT…TC
Conditions: aptamer strand: ATP DNA aptamer (quencher-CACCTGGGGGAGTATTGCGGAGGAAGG + anchor), 100 nM annealed; ATP concentration: 500 uM
QUANTITY_NAME: switch fluorescence ratio
Answers are plain numbers.

Example results:
| SEQUENCE_RECORD | QUANTITY_NAME | RECORDED_RESULT |
| --- | --- | --- |
| TCGTCAACGG | switch fluorescence ratio | 1.01 |
| AATTTGTACC | switch fluorescence ratio | 0.989 |
| GGGTTGACGC | switch fluorescence ratio | 1.01 |
| TTTATAGCGG | switch fluorescence ratio | 0.996 |
| GTATGGATGT | switch fluorescence ratio | 1.01 |
| GCTGATGCGT | switch fluorescence ratio | 1.01 |
| GATTAGTGTG | switch fluorescence ratio | 0.995 |
| TATGGAGTTA | switch fluorescence ratio | 0.986 |
| CCTTGAAAGG | switch fluorescence ratio | 1 |
| GTTAAATTTT | switch fluorescence ratio | 0.986 |

Provide switch fluorescence ratio values for the following items, in order.
1. AGGGTTGGAC
2. ATTTCAGATA
3. TGTTTGATAT
4. CAGTTGGACG
5. GGCTACTGAG

[0.977, 1.01, 0.992, 1.04, 1.08]

* * *

Test system: ATP;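 further: ATP exposure 15 min at 22 °C before imaging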
Assay: switch fluorescence ratio, 500 uM ATP over buffer (Cy3 cluster intensity, sum of 5 cycles each) (fold (ratio)); higher = stronger signal-on switching upon ATP binding; sequences stand for … in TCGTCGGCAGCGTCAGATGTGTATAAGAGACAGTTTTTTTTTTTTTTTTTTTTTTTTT…TC
Conditions: aptamer strand: ATP DNA aptamer (quencher-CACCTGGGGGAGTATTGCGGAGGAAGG + anchor), 100 nM annealed; ATP concentration: 500 uM
For each entry below, report its switch fluorescence ratio value.
Numbers only.

Example results:
| SEQUENCE_RECORD | SYSTEM_UNDER_TEST | switch fluorescence ratio |
| --- | --- | --- |
| ATTTGAGCAG | ATP | 1.01 |
| ACGGGACGTA | ATP | 1.04 |
| CCAGCTTCTG | ATP | 1 |

Provide switch fluorescence ratio values for the following items, in order.
1. CGCTGTGAAG
2. GCAGGAGCGG

[1.02, 0.998]
